- test target: Citron Rho-interacting kinase (Homo sapiens, UniProt O14578); further: in the data inactive means no Kd found up to 30 µM
- Sequence (O14578 whole entry): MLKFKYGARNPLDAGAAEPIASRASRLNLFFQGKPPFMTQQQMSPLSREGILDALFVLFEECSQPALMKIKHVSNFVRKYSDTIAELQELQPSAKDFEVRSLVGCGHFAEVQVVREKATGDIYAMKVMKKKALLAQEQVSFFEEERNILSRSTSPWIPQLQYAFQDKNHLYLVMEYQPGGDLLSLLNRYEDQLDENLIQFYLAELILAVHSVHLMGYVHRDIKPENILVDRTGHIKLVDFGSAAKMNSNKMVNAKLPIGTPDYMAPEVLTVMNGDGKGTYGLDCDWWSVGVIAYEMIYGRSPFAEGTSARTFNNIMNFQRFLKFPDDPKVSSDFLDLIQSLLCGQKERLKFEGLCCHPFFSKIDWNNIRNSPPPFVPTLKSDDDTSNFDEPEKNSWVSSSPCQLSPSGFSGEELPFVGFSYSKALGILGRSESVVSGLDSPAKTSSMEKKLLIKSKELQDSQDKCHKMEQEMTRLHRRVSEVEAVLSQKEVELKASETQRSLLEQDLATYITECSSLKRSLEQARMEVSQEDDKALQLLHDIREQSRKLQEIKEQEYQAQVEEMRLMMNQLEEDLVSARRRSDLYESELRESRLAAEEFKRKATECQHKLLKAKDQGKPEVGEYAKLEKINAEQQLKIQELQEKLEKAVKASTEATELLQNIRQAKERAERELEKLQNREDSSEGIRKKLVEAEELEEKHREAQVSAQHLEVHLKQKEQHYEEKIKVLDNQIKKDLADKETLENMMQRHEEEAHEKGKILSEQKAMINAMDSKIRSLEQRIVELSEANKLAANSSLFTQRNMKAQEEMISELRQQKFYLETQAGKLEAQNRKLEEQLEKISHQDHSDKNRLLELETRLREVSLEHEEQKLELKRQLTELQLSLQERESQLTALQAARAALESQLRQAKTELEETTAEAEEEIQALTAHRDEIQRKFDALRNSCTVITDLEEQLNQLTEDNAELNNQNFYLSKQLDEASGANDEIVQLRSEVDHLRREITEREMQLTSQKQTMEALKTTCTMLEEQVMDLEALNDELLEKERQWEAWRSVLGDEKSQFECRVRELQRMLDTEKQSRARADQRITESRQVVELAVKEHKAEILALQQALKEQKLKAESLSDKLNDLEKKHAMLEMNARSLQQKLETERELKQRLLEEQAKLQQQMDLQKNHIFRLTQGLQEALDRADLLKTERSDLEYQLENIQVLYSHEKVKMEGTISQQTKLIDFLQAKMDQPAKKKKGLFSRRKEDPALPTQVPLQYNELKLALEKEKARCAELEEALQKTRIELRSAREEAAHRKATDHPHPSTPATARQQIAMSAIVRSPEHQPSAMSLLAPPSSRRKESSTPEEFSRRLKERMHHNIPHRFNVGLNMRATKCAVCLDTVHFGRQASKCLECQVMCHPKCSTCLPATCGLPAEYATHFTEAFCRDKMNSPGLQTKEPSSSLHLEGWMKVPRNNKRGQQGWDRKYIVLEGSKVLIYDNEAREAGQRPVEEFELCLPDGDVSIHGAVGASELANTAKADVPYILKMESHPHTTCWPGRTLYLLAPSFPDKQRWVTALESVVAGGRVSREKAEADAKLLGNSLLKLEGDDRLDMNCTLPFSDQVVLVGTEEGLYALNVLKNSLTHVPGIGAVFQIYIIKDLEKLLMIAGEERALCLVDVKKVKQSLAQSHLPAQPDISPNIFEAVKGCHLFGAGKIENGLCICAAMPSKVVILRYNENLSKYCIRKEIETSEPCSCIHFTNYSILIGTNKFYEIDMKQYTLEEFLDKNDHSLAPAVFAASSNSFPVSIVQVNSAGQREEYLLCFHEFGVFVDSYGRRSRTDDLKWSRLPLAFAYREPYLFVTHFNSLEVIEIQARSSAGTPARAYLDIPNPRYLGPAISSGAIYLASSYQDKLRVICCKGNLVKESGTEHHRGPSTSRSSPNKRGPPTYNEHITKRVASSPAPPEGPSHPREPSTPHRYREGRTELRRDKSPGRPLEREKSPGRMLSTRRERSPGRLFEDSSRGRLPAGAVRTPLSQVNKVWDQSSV
The source made the active and inactive calls.
Answer with one of the outcomes active, inactive

[ask] What call does the record list for CC[C@@H]1C(=O)N(C)c2cnc(Nc3ccc(C(=O)N[C@H]4CC[C@H](N5CCN(CC6CC6)CC5)CC4)cc3OC)nc2N1C(C)C [VOLASERTIB] ?
[reply] inactive

[ask] What call does the record list for CNC(=O)c1ccc(C)c(-n2c(C)cc(OCc3ccc(F)cc3F)c(Br)c2=O)c1 [PH-797804] ?
[reply] inactive

[ask] What call does the record list for CC(=O)Nc1cccc(-n2c(=O)n(C3CC3)c(=O)c3c(Nc4ccc(I)cc4F)n(C)c(=O)c(C)c32)c1 [TRAMETINIB] ?
[reply] inactive

[ask] What call does the record list for C[C@@H]1CN(Cc2ccc(F)cc2)[C@@H](C)CN1C(=O)c1cc2c(C(=O)C(=O)N(C)C)cn(C)c2cc1Cl [TALMAPIMOD] ?
[reply] inactive

[ask] What call does the record list for N[C@@H]1CCCN(c2c(/C=C3\SC(=O)NC3=O)cccc2-c2ccccc2)C1 ?
[reply] inactive

[ask] What call does the record list for CCS(=O)(=O)N1CC(CC#N)(n2cc(-c3ncnc4[nH]ccc34)cn2)C1 [BARICITINIB] ?
[reply] active

[ask] What call does the record list for Cc1cc([C@@H](C)Nc2ccccc2C(=O)O)c2nc(N3CCOCC3)cc(=O)n2c1 [AZD-6482] ?
[reply] inactive

[ask] What call does the record list for C[C@@H](c1ccc2nccn2c1)n1nnc2ncc(-c3cnn(C)c3)nc21 [SAVOLITINIB] ?
[reply] inactive

---

- test target: Receptor-interacting serine/threonine-protein kinase 3 (Homo sapiens, UniProt Q9Y572); further: in the data inactive means no Kd found up to 30 µM
- Sequence (Q9Y572 whole entry): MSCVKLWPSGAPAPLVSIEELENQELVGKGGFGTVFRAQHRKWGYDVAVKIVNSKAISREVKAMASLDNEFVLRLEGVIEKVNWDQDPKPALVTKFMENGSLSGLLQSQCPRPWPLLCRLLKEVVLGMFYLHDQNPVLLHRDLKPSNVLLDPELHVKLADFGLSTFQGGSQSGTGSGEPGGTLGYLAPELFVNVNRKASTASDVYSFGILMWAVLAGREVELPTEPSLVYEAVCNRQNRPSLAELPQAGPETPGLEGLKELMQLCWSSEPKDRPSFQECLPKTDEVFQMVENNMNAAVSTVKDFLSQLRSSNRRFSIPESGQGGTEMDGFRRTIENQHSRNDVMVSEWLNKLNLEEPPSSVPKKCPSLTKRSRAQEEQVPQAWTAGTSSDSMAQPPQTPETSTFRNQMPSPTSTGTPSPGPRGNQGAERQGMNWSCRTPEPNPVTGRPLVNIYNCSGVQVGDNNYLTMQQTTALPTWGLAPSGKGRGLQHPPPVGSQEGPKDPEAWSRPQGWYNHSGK
Calls of active or inactive are those of the source.
Answer with one of the outcomes active, inactive

[ask] What call does the record list for Cc1cc([C@@H](C)Nc2ccccc2C(=O)O)c2nc(N3CCOCC3)cc(=O)n2c1 [AZD-6482] ?
[reply] inactive

[ask] What call does the record list for Cc1nc(N)sc1-c1ccnc(Nc2ccc(N3CCOCC3)cc2)n1 [CYC-116] ?
[reply] active

[ask] What call does the record list for CCn1c(-c2nonc2N)nc2c(C#CC(C)(C)O)ncc(OC[C@H]3CCCNC3)c21 [GSK-690693] ?
[reply] inactive

[ask] What call does the record list for CCS(=O)(=O)N1CC(CC#N)(n2cc(-c3ncnc4[nH]ccc34)cn2)C1 [BARICITINIB] ?
[reply] inactive

[ask] What call does the record list for COc1ccc(-c2ccc3c(N4CCOC[C@@H]4C)nc(N4CCOC[C@@H]4C)nc3n2)cc1CO [AZD-8055] ?
[reply] inactive

[ask] What call does the record list for CC[C@@H]1C(=O)N(C)c2cnc(Nc3ccc(C(=O)N[C@H]4CC[C@H](N5CCN(CC6CC6)CC5)CC4)cc3OC)nc2N1C(C)C [VOLASERTIB] ?
[reply] inactive

[ask] What call does the record list for C=CC(=O)N1CCC(Oc2cc3c(Nc4ccc(Cl)c(Cl)c4F)ncnc3cc2OC)CC1 [POZIOTINIB] ?
[reply] active

[ask] What call does the record list for OCCn1cc(-c2cnc3nnn(Cc4ccc5ncccc5c4)c3n2)cn1 [PF-04217903] ?
[reply] inactive

[ask] What call does the record list for COc1cc(OC)c(/C=C/S(=O)(=O)Cc2ccc(OC)c(NCC(=O)O)c2)c(OC)c1 [RIGOSERTIB] ?
[reply] inactive

[ask] What call does the record list for CCc1cnn2c(NCc3ccc[n+]([O-])c3)cc(N3CCCC[C@H]3CCO)nc12 [DINACICLIB] ?
[reply] inactive

[ask] What call does the record list for Cc1c(F)cc(C(=O)NC2CC2)cc1-c1ccc(C(=O)NCC(C)(C)C)cn1 [LOSMAPIMOD] ?
[reply] inactive

[ask] What call does the record list for Cn1cc(-c2ccc3nnc(C(F)(F)c4ccc5ncccc5c4)n3n2)cn1 [JNJ-38877605] ?
[reply] inactive

[ask] What call does the record list for Cn1ncc(Cl)c1-c1cc(C(=O)N[C@H](CN)Cc2cccc(F)c2)sc1Cl [AFURESERTIB] ?
[reply] inactive

[ask] What call does the record list for CCn1c(=O)c(-c2cc[nH]n2)cc2c(C)nc(N)nc21 [VOXTALISIB] ?
[reply] inactive

[ask] What call does the record list for CN1CCC(CNc2ccc3ncc(-c4cccc(OC(F)(F)F)c4)n3n2)CC1 [SGI-1776] ?
[reply] inactive

[ask] What call does the record list for CC(C)Nc1cc(-c2c[nH]c(C(=O)N[C@H](CO)c3cccc(Cl)c3)c2)c(Cl)cn1 [ULIXERTINIB] ?
[reply] inactive

[ask] What call does the record list for COC(=O)[C@@]1(O)C[C@H]2O[C@]1(C)n1c3ccccc3c3c4c(c5c6ccccc6n2c5c31)C(=O)NC4 [K-252A] ?
[reply] inactive

[ask] What call does the record list for O=C1NC(=O)/C(=C/c2ccc3nccc(-c4ccncc4)c3c2)S1 [GSK-1059615] ?
[reply] inactive

[ask] What call does the record list for C1=C/COCc2cc(ccc2OCCN2CCCC2)Nc2nccc(n2)-c2cccc(c2)COC/1 [PACRITINIB] ?
[reply] inactive

[ask] What call does the record list for CC[C@H](Nc1ncnc2[nH]cnc12)c1nc2cccc(F)c2c(=O)n1-c1ccccc1 [IDELALISIB] ?
[reply] inactive

[ask] What call does the record list for CCN1CCN(Cc2ccc(-c3cc4c(N[C@H](C)c5ccccc5)ncnc4[nH]3)cc2)CC1 [AEE-788] ?
[reply] inactive

[ask] What call does the record list for C[C@@H](c1ccc2nccn2c1)n1nnc2ncc(-c3cnn(C)c3)nc21 [SAVOLITINIB] ?
[reply] inactive

[ask] What call does the record list for CN1CCN(c2ccc3nc(-c4c(N)c5c(F)cccc5[nH]c4=O)[nH]c3c2)CC1 [DOVITINIB] ?
[reply] inactive
